Test system: SK-MEL-5 melanoma
assay_notes: NCI tumour cell line growth inhibition, 48 h
Give measured TGI for each item. Keep answers brief.

> print(dat)
                                   compound   reading
1  C/C(=N\N)C(CN1CCCCC1)C(c1ccccc1)c1c(O)c2ccccc2oc1=O (stereo not given)  > 100 µM

Provide TGI for all items below, preserving their order.
1. C=C(c1ccc(OC)c(/C=C/C(=O)c2cc(OC)c(OC)c(OC)c2)c1)c1cc(OC)c(OC)c(OC)c1
2. CCCCCCCCCCCCCCCCOP(=O)(O)OP(=O)(O)OCC1OC(n2cnc3c(N)ncnc32)C(O)C1O (stereo not given)
3. O=C(CC(C(=O)c1cccs1)c1ccsc1)c1ccc(Cl)cc1 (stereo not given)
4. NNC(=O)CC(=O)Nc1ccccc1Cl
5. O=C(N/C(=C\NC1=NCCS1)C(=O)N1CSC[C@@H]1C(=O)O)c1ccccc1

2.5 µM
> 100 µM
> 100 µM
> 100 µM
> 100 µM
